molecular target: Tyrosinase (Homo sapiens, UniProt P14679); assay: Inhibition of tyrosinase (unknown origin) using L-tyrosine as substrate preincubated for 15 mins followed by substrate addition
Sequence (P14679 whole entry): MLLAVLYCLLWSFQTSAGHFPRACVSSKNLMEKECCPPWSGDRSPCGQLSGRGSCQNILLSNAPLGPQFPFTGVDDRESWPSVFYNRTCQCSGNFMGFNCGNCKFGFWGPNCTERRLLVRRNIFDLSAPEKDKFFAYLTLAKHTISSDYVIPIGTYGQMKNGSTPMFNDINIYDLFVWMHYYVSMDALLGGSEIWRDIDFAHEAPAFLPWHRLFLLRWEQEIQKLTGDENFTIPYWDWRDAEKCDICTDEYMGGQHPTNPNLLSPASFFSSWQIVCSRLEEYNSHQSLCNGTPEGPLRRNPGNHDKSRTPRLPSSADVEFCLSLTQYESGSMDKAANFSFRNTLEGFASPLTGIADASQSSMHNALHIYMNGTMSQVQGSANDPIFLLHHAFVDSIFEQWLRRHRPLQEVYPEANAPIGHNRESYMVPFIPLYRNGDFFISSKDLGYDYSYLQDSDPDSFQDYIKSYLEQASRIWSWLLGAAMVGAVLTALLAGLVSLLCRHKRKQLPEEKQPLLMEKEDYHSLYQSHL
recorded metric: IC50 (µM)
Numbers only, in µM.

Past entries and their recorded results:
INSERT INTO assay_data (compound, meas_value) VALUES
  ('COc1ccc(C2COc3c(ccc(O)c3CC=C(C)C)C2=O)c(O)c1 (stereo not drawn)', 5.1),
  ('CC1(C)C=Cc2cc3cc(-c4ccc(O)cc4O)c(=O)oc3cc2O1', 2.8);

Here's the next entry for you.
May I ask what IC50 has been recorded for CC1(C)C=Cc2c(O)ccc(C3=Cc4ccc(O)cc4OC3)c2O1 [GLABRENE] ?
7.5
